Exercise: state measured composite z-score for each of the molecules provided.
Tested on: Sam68 (KHDRBS1)
Assay: Sam68 small-molecule binders, primary screen, biochemical, small-molecule microarray, 635 nm fluorescence (AID 1125);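 note: score merges 667 nm channel intensity with signal to noise over triplicate slides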
Settings: small-molecule microarray binding, higher = more signal
Give bare numbers.

Below: 3 molecules and their reported composite z-score.
CC(C)c1ccc(NN2C(C(O)C3=C[C@H]4C[C@@H](C3)C4(C)C)C=CC3C(=O)N(c4ccccc4)C(=O)C32)cc1 (stereo not given in full); 1.17
CCCC1(C(=O)OC)C=C2C(=C(C(C)C)C(=O)C2C)CN1 (stereo not given); -1.36
CC(C)Cc1ccc(CN2CC[C@@H](NC(=O)c3ccccc3)C2)cc1; -0.252

Report composite z-score for every entry below.
1. C=C(CCCC)/C(=C/C[C@@H](OC(C)=O)c1ccc(OCCO)cc1)c1cc(C(=O)OC)ccc1OC
2. [N-]=[N+]=NCc1ccccc1[C@H]1OC(c2ccc(OCCCO)cc2)=N[C@@]1(CCS(=O)(=O)c1ccccc1)C(=O)O
3. CCCCCCc1nc(-c2ccc(OC)nc2)c(C)c2c1[Si](C(C)C)(C(C)C)OC2
4. COc1ccc(C(=O)Nc2ccc(CN3C(=O)[C@]4(O[C@H](CC(=O)N(CCO)Cc5ccccc5)[C@@H]([Si](C)(C)c5ccc(OC)cc5)[C@@H]4C)c4ccccc43)cc2)cc1
5. [N-]=[N+]=NCc1ccccc1[C@H]1OC(c2ccc(OCCCO)cc2)=N[C@@]1(Cc1ccccc1N=[N+]=[N-])C(N)=O
6. COc1ccc(C#Cc2ccc3c(c2)[C@]2(C(=O)N3)[C@H](c3ccccc3OCCO)N3[C@H](c4ccccc4)[C@H](c4ccccc4)OC(=O)[C@H]3[C@@H]2C(=O)NC[C@H](O)c2ccccc2)cc1
7. COc1cc(CO)cc(I)c1O[C@H]1C=C(C(=O)NCCO)C[C@@H](N(CCN2CCOCC2)C(=O)C2CCCO2)[C@@H]1O (stereo not given in full)
8. Cc1ccc(S[C@]2(C(=O)NCCN3CCOCC3)CC(=O)N(C(C)C)[C@@H]2c2ccc(CO)cc2I)cc1

Response:
1. 1.2
2. 0.367
3. 0.18
4. 1.35
5. 1.27
6. 1.32
7. -0.0878
8. 0.949

Report composite z-score for every entry below.
1. O=C1c2ccccc2[C@](Cc2ccccc2I)(C(=O)NCCN2CCOCC2)[C@H](c2ccc(CO)cc2)N1Cc1ccccc1C(F)(F)F
2. O=C1O[C@H](c2ccccc2)[C@H](c2ccccc2)N2[C@H]1[C@@H](C(=O)Nc1nc3ccccc3s1)[C@]1(C(=O)Nc3ccccc31)[C@H]2c1ccccc1OCCO
3. CN(C)C(=O)[C@]1(CCS(=O)(=O)c2ccccc2)N=C(c2ccc(OCCCO)cc2)O[C@@H]1c1ccccc1CN=[N+]=[N-]

Response:
[1.29, 1.29, 1.3]

Request: Give the measured composite z-score of C[C@]12C(=O)N(CCO)[C@@H]3C(=O)N(c4ccc(Cl)cc4)CC=CC31O[C@@H]1/C=C\CCCOC(=O)C12 (stereo not given in full) .
Response: -0.0284

* * *

Target: Neurogenic locus notch homolog protein 3 (Homo sapiens) (UniProt Q9UM47)
Sequence (Q9UM47 whole entry, looked up): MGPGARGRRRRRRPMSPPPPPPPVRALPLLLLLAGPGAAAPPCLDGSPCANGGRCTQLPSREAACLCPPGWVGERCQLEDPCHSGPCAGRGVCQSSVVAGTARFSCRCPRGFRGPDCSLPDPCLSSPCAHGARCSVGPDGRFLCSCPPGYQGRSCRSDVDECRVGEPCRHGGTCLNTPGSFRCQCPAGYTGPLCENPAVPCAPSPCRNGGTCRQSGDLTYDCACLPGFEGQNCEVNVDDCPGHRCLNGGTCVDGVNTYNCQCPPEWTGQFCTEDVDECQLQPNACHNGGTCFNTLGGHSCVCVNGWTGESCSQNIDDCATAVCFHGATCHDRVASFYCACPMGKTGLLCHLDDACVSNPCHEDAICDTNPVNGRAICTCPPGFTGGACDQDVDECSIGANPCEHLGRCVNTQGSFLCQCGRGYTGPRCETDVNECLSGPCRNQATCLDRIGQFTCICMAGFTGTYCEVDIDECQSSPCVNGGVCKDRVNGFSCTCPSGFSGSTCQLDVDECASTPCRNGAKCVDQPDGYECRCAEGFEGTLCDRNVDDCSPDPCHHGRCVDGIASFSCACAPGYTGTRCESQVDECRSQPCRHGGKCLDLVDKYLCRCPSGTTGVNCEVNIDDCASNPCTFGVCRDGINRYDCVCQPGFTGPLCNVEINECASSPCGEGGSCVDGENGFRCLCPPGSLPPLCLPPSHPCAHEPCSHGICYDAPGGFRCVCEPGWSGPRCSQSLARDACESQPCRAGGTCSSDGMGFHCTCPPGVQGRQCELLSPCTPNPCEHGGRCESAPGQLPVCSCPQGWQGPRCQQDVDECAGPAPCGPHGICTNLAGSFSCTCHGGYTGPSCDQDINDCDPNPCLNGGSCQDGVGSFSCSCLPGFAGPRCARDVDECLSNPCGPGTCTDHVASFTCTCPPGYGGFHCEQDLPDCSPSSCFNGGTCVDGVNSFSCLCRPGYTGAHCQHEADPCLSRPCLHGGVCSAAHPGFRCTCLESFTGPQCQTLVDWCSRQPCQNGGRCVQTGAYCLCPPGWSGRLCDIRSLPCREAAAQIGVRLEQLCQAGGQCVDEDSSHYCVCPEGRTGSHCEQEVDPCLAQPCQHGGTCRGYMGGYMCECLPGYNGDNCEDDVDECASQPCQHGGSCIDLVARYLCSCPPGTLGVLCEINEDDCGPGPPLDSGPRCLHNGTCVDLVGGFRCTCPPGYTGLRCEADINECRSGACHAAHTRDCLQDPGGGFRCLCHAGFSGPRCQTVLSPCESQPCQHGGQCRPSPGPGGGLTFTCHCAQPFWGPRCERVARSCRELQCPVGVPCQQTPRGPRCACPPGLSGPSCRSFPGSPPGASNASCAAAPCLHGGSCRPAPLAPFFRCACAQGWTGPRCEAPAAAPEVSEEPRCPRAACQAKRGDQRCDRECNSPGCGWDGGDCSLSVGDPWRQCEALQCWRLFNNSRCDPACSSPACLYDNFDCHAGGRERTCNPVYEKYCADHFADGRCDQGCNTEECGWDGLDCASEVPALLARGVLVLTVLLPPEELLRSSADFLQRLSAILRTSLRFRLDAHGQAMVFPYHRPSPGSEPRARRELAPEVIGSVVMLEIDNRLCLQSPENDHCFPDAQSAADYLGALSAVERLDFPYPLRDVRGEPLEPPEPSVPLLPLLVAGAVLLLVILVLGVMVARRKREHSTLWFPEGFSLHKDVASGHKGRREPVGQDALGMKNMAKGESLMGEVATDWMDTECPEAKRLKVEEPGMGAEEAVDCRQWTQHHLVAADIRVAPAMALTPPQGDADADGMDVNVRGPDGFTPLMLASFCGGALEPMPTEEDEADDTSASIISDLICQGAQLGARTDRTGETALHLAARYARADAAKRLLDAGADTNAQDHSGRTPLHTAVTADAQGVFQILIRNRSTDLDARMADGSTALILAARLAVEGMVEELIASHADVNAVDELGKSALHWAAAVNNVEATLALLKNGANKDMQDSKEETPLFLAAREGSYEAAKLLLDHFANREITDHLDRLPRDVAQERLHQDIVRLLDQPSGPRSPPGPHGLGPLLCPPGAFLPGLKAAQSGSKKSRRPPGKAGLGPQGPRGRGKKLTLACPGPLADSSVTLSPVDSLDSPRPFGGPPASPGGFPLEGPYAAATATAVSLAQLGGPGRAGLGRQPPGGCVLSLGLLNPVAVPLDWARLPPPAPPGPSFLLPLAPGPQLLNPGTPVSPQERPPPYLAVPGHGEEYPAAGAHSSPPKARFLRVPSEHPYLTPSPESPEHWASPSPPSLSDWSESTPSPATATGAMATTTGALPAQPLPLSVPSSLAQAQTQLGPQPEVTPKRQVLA
Experiment: NOTCH3 binders on small-molecule microarray, primary screen, biochemical, 635/667 nm fluorescence (AID 1096)
Settings: NOTCH3 binding, 635 nm fluorescence, higher = more signal
Exercise: state measured composite z-score for each of the molecules provided.
Numbers only.

Below: 2 molecules and their reported composite z-score.
CCCCC(=C=CC[C@@H](O)c1ccccc1OCCO)C[C@@H](O)c1ccccn1; 0.311
COCCOC(=O)N1C(=O)[C@@]2(c3ccccc31)[C@H](C(=O)Nc1nc3ccccc3s1)[C@H]1C(=O)O[C@H](c3ccccc3)[C@H](c3ccccc3)N1[C@@H]2c1ccccc1OCCO; 1.1

Request: Give the measured composite z-score of `COc1cc2c(cc1OC)CN(C(=O)[C@@H]1[C@H]3C(=O)O[C@H](c4ccccc4)[C@H](c4ccccc4)N3[C@H](c3ccc(O)cc3)[C@@]13C(=O)Nc1ccc(C#CC4=CCCCC4)cc13)CC2` .
Response: 1.08

* * *

Biological target: Concanavalin-A (Canavalia ensiformis) (UniProt P02866)
Sequence (P02866 whole entry, looked up): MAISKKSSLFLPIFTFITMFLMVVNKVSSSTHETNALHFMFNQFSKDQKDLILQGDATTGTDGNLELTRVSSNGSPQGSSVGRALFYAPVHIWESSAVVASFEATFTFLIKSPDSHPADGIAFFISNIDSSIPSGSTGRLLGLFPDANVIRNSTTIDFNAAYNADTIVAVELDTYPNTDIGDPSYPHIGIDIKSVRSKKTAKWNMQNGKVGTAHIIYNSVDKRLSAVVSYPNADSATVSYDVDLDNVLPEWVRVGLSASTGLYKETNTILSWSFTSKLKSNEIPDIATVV
Assay: ConA small-molecule binders, primary screen, artefact control for SMM control protein annotation, biochemical, small-molecule microarray, Alexa647 label, 635 nm (AID 1127);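 note: z combines 667 nm emission intensity with signal-to-noise across three replicate slides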
Conditions: ConA-A647 binding fluorescence, higher = more signal
Exercise: state measured composite z-score for each of the compounds provided.

Below: 4 compounds and their reported composite z-score.
C[C@]1(C(=O)NCC(F)(F)F)c2ccccc2C(=O)N(Cc2cc(C(F)(F)F)cc(C(F)(F)F)c2)[C@H]1c1ccc(CO)cc1; -0.522
COC(=O)C(CC#Cc1ccc2c(c1)[C@]1(C(=O)N2)[C@H](C(=O)NC[C@H](O)c2ccccc2)[C@H]2C(=O)O[C@H](c3ccccc3)[C@H](c3ccccc3)N2[C@@H]1c1ccc(O)cc1)C(=O)OC; 0.188
[N-]=[N+]=NCc1ccccc1[C@H]1OC(c2ccc(OCCCO)cc2)=N[C@@]1(Cc1ccccc1N=[N+]=[N-])C(=O)O; 1.14
Cc1cccc([C@H]2C[C@H]3C(Br)=C[C@@]2(CO)C(=O)[C@]32CO2)c1; -0.0472

Report composite z-score for every entry below.
1. COC(=O)c1ccc(OC)c(/C=C\CC(OC(=O)c2ccncc2)c2ccccc2)c1 (configuration not stated)
2. CCCC=C(CCC)[C@@H](NC(=O)c1ccc(C(=O)OC)cc1)c1ccc(C(=O)OC)cc1
3. CC1CC/C=C\[C@H]2OC34C=CCN(C(C)C)C(=O)[C@H]3N(C(C)CO)C(=O)[C@@H]4C2C(=O)O1 (some centres not stated)

Response:
0.535
0.251
-0.0657

* * *

Experiment: small-molecule microarray binders of probe aEGFR, primary screen, biochemical, biotinylated probe, 635/667 nm fluorescence (AID 1097);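 note: probe is a biotinylated anti-EGFR antibody binding compounds printed on slides; score combines fluorescence near 667 nm and signal to noise of each spot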
Details: higher = more signal
Exercise: state measured composite z-score for each of the compounds provided.
Give bare numbers.

C=CCOC(=O)[C@H]1[C@@H]2C(=O)O[C@@H](c3ccccc3)[C@@H](c3ccccc3)N2[C@@H](c2ccc(OCCOC(=O)[C@H]3C[C@H]4C(=O)NCC(=O)N4[C@H]3c3ccc(O)cc3)cc2)[C@]12C(=O)Nc1ccccc12; 0.0656
COC(=O)C(CC#Cc1ccc2c(c1)[C@]1(C(=O)N2)[C@H](c2ccc(OCCO)cc2)N2[C@H](c3ccccc3)[C@H](c3ccccc3)OC(=O)[C@H]2[C@@H]1C(N)=O)C(=O)OC; -0.19

Request: Give the measured composite z-score of `C=C(CCCC)/C(=C/C[C@@H](OC(C)=O)c1cccc(OCCO)c1)c1cc(C(=O)OC)ccc1OC` .
Response: -0.0698

* * *

Test: basal RPMI8226 viability, no added stimulus, profiling panel, cell-based, calcein-AM fluorescence, 48 h, PK04 Diversity Set (AID 1166);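 note: cells grown under basal conditions without added stimulus; test concentration not given here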
Settings: RPMI8226 myeloma viability, higher = more signal
Grouping rule (z-score): bottom end (below -2), midrange (-2 to below -0.4), top end (-0.4 or more)

Illustrative cases are given below, each with its answer.
CC(C)c1ccc(NN2C(C(O)C3=C[C@H]4C[C@@H](C3)C4(C)C)C=CC3C(=O)N(c4ccccc4)C(=O)C32)cc1 (stereo partly specified); midrange
COC(=O)C1=CC(c2ccc(CO)cc2)=CC(C2CC2)N(Cc2cc3c(cc2Br)OCO3)C=C1C(=O)OC (stereo unspecified); bottom end
COC(=O)[C@H](Cc1ccccc1)N1CC(C)(OC)O[C@@H](Cc2ccccc2)[C@H]1/C=C/C1CC1 (stereo partly specified); top end
C=CC[C@@]1(C(=O)NCCCOC)N=C(c2ccc(OCCCO)cc2)O[C@@H]1c1ccccc1CN=[N+]=[N-]; midrange
C=CC[C@H](OC(=O)Nc1ccc(SC)cc1)c1ccc(O)c(F)c1; midrange
Cc1ccc(S(=O)(=O)N2[C@@H](c3ccccc3)C(C(=O)O)=CC[C@H]2c2ccc(F)cc2)cc1; top end
[N-]=[N+]=NCc1ccccc1[C@H]1OC(c2ccc(OCCCO)cc2)=N[C@@]1(Cc1ccccc1N=[N+]=[N-])C(=O)N1CCOCC1; bottom end
CC(C)c1ccc(NN2C(C(O)c3ccccc3)C=CC3C(=O)N(c4ccccc4)C(=O)C32)cc1 (stereo unspecified); top end

Request: GET /class?item= C[C@H]1C2[C@H](Cc3ccccc3)NC(=O)[C@]23C(=O)N[C@@H](Cc2ccccc2)C(=O)N2CCC[C@H]2C(=O)NC/C=C/CC/C=C/C3[C@@H]2O[C@]12C (stereo partly specified)
Response: midrange

Request: GET /class?item= `COC(=O)[C@@]1(Cc2ccc(F)cc2)[C@H]2c3cc(C(=O)N4CCCC4)n(Cc4ccc(OC(F)(F)F)cc4)c3C[C@H]2CN1C(=O)c1ccccc1`
Response: midrange

Request: GET /class?item= `OCCCc1cc[n+](Cc2cc3c(cc2Br)OCO3)cc1`
Response: midrange

Request: GET /class?item= `C=CC[C@]12N=C(c3ccc(OCCCO)cc3)O[C@H]1c1ccccc1N(CCC)C2=O`
Response: bottom end

Request: GET /class?item= `[N-]=[N+]=Nc1ccccc1C[C@@]1(C(=O)NCc2ccccc2)N=C(c2ccc(OCCCO)cc2)O[C@@H]1c1ccccc1`
Response: bottom end

Request: GET /class?item= C=CCC(OC(C)=O)[C@@H]1[C@@H](N(Cc2ccc(-c3ccccc3)cc2)C(=O)Cc2ccc(OC)cc2)c2cc(OCCCO)ccc2N1C(=O)Cc1ccc(OC)cc1 (stereo partly specified)
Response: top end

Request: GET /class?item= `CC(C)C[C@@H]1NC(=O)[C@H]2C[C@@H](C(=O)O)[C@@H](c3cccc(OCCO)c3)N2C1=O`
Response: top end

Request: GET /class?item= `C=C(/C=C\CNS(=O)(=O)c1ccc(C)cc1)[C@H](O)[C@H]1CCCN1S(=O)(=O)c1ccccc1[N+](=O)[O-]`
Response: midrange
